System: Rabbit Platelet
Assay: PAF-induced platelet aggregation
Assay type: cell-based
Conditions: Oryctolagus cuniculus, washed rabbit platelets, 60 sec preincubation, PAF 0.2 nM to 0.2 μM, aggregation at 60 sec
reportedEndpoint: pIC50
Numbers only, as −log10 of the molar value.

molecule	pIC50
O=C(CC1CCCC1)c1ccc(Cn2ccc3ncnc-3c2)cc1	5.59
O=C(c1ccc(Cn2ccc3ncnc-3c2)cc1)C(C1CCCCC1)C1CCCC1 (stereo not shown)	6.55
C=CCC(C(=O)c1ccc(Cn2ccc3ncnc-3c2)cc1)C1CCCCC1 (stereo not shown)	6.20

Consider now this further molecule.
Query string: If you can, please state the reported pIC50 value of O=C(CC1CCCCC1)c1ccc(Cn2ccc3ncnc-3c2)cc1 .
Result string: 6.02
